Data credit: the supplement of paper PMC11451515

- Test system: SEM cells
- procedure-text: cell viability relative to DMSO control; higher = less cytotoxic
- measurement-context: RPMI 5 mM glucose + 10% FBS; 48 h; 0.00234 µM
measured-attribute: cell viability (%)
Express the result in % but write the number alone.

Problem: System SEM cells. Read-out cell viability. Item CCOC(=O)\C1=C\[C@@H](OC(CC)CC)[C@H](NC(C)=O)[C@@H](N)C1 . Report value.
Result: 85.1

Problem: Lab note: SEM cells assay, enter cell viability for COC(=O)\C1=C\CCN(C)C1 here
Result: 103

Problem: Write down the reported cell viability (system: SEM cells) of COC1=CC=C(C=C1O)C/2=C/C(=O)C3=C(O2)C=C(O[C@@H]4O[C@H](CO[C@@H]5O[C@@H](C)[C@H](O)[C@@H](O)[C@H]5O)[C@@H](O)[C@H](O)[C@H]4O)C=C3O
Result: 108

Problem: Give cell viability for this entry on SEM cells: OC[C@H]1O[C@@H](Oc2cc(O)cc(/C=C/c3ccc(O)cc3)c2)[C@H](O)[C@@H](O)[C@@H]1O
Result: 102

Problem: Write down measured cell viability (SEM cells) for this molecule. CC(NCCc1ccc(O)cc1)C(O)c1ccc(O)cc1 (stereo not drawn)
Result: 110

====

- Tested on: P12-Ichikawa
- procedure-text: cell viability relative to DMSO control; higher = less cytotoxic
- measurement-context: RPMI 5 mM glucose + 10% dialyzed FBS; 48 h; 0.00234 µM
cell viability: recorded values
Please reply with the bare figure in % and do not write the unit itself.

Here's what some known entries look like.
CC(C)Cc1ccc(C(C)C(=O)O)cc1 (stereo not given) = 91.6
COc1cc(C(=O)NS(=O)(=O)c2ccccc2C)ccc1Cc1cn(C)c2ccc(NC(=O)OC3CCCC3)cc12 = 74
C[S+](=O)([O-])c1ccc(Oc2cc(F)cc(C#N)c2)c2c1[C@H](O)C(F)(F)C2 = 105
N=C1N[C@H]2[C@H](CS[C@H]2CCCCC(=O)O)N1 = 124

Then this molecule:
Problem: Provide one value: measured cell viability of CC/1=C(\O)C(=O)\C=C2/C1=C/C=C3\[C@@]2(C)CC[C@@]4(C)[C@@H]5C[C@@](C)(CC[C@]5(C)CC[C@]34C)C(O)=O
Result: 94.9

====

Catalogue of cell viability values
- System: NOMO1
- procedure-text: cell viability relative to DMSO control; higher = less cytotoxic
- measurement-context: RPMI 5 mM glucose + 10% dialyzed FBS; 48 h; 15.4 µM
Please respond with the number in % and leave the unit unwritten.

Some molecules with known cell viability results, for comparison:
COc1cc(/C=C/C(=O)O)ccc1O = 92.5
C[S+](=O)([O-])c1ccc(Oc2cc(F)cc(C#N)c2)c2c1[C@H](O)C(F)(F)C2 = 125
COc1ncc(-c2ccc3c(Nc4cc(Oc5cc(F)cc(F)c5)cc(C(=O)O)c4)c([S+](=O)([O-])NC4CC4)cnc3c2)c(OC)n1 = 79.7

Problem: Look up cell viability of C[C@]12CC[C@H]3[C@@H](CCC/4=C/C(=O)CC[C@]34C)[C@@H]1CC[C@@H]2OC(=O)CCC5CCCC5 and report it.
Result: 111

Problem: Give the value of cell viability reported for the following: COc1cc(C(=O)NS(=O)(=O)c2ccccc2C)ccc1Cc1cn(C)c2ccc(NC(=O)OC3CCCC3)cc12
Result: 81.2

Problem: For the molecule CNC(=O)CN1CCC(Oc2cc3c(Nc4cccc(Cl)c4F)ncnc3cc2OC)CC1 , report cell viability.
Result: 33.7

Problem: Give me measured cell viability, please, for this molecule: CN(C)C1=C(Br)C=C(C=C1)C\2NC3=C(\C4=C2C(=O)CC(C)(C)C4)C5=CC=CC=C5C=C3 (centres undefined)
Result: 74.4

Problem: For CC/1=C(/N2[C@H](SC1)[C@H](NC(=O)C(N)C3=CC=CC=C3)C2=O)C(O)=O (some centres undefined) , write its cell viability.
Result: 146

====

- Test system: SEM cells
- procedure-text: cell viability relative to DMSO control; higher = less cytotoxic
- measurement-context: HPLM + 10% dialyzed FBS; 48 h; 15.4 µM
Quick list: cell viability per entry.
// units = %; emit number, no label

COc1cc(C(=O)NS(=O)(=O)c2ccccc2C)ccc1Cc1cn(C)c2ccc(NC(=O)OC3CCCC3)cc12 = 62.6

Problem: Respond only with cell viability recorded for Nc1ncnc2c1nc(Cl)n2[C@@H]1O[C@H](CO)[C@@H](O)[C@H]1O
Result: 41.6

Problem: Report cell viability, nothing else, for this compound: CC(C)C[C@H](NC(=O)[C@@H](O)[C@H](N)Cc1ccccc1)C(=O)O
Result: 114

Problem: Read the entry c1ccc(-c2oc3ncnc(NC[C@@H]4CCCO4)c3c2-c2ccccc2)cc1 and write its reported cell viability.
Result: 121

Problem: Provide measured cell viability value, entry: C[C@@]1(C(=O)Nc2ccc(F)nc2)CCCN1c1nc(Nc2cc(C3CC3)[nH]n2)c2cccn2n1
Result: 21.4

Problem: Identify the reported cell viability for the following entry. C[C@@H](O)[C@@H]1NC(=O)[C@H](CCCCN)NC(=O)[C@@H](Cc2c[nH]c3ccccc23)NC(=O)[C@H](Cc2ccccc2)NC(=O)[C@@H](NC(=O)[C@H](N)Cc2ccccc2)CSSC[C@@H](C(=O)N[C@H](CO)[C@@H](C)O)NC1=O
Result: 97.7

====

# cell viability values compiled below
- System: SEM cells
- procedure-text: cell viability relative to DMSO control; higher = less cytotoxic
- measurement-context: RPMI 5 mM glucose + 10% dialyzed FBS; 48 h; 0.00234 µM
Give your result in % as a bare value.

Example entries begin here.
COc1cc(CNC(=O)CCCC/C=C/C(C)C)ccc1O = 93.2
N[S+](=O)([O-])OC[C@@H]1C[C@@H](n2ccc3c(N[C@H]4CCc5ccccc54)ncnc32)C[C@@H]1O = 95.4
OC1=CC2=C(C(=C1)O)C(=O)\C(=C(/O2)C3=CC(=C(O)C=C3)O)O = 85.2
CC(C)Oc1ccc(C(=O)N[C@H](CNC(=O)CN(C)C)Cc2ccc(-c3cn4cccc([C@H](C)O)c4n3)cc2)cc1Cl = 119
CNC(=O)C1=CC=C(C)C(=C1)N2C(=C/C(=C(/Br)C2=O)OCC3=C(F)C=C(F)C=C3)\C = 118
COc1cc(C)c(Sc2cnc(NC(=O)c3ccc(CNC(C)C(C)C)cc3)s2)cc1C(=O)N1CCN(C(C)=O)CC1 (centres undefined) = 141
CNC(=O)CN1CCC(Oc2cc3c(Nc4cccc(Cl)c4F)ncnc3cc2OC)CC1 = 113
COc1ccc2cc1Oc1ccc(cc1)C[C@H]1c3cc(c(OC)cc3CCN1C)Oc1c(OC)c(OC)cc3c1[C@H](C2)N(C)CC3 = 117
C=CCc1ccc(O)c(-c2ccc(O)c(CC=C)c2)c1 = 101
COc1cc(C(=O)NS(=O)(=O)c2ccccc2C)ccc1Cc1cn(C)c2ccc(NC(=O)OC3CCCC3)cc12 = 54.8

Problem: Annotate the molecule COc1ncc(-c2ccc3c(Nc4cc(Oc5cc(F)cc(F)c5)cc(C(=O)O)c4)c([S+](=O)([O-])NC4CC4)cnc3c2)c(OC)n1 with its measured cell viability.
Result: 83.5

Problem: Determine from records and report cell viability for OC[C@H]1O[C@@H](Oc2cc(O)cc(/C=C/c3ccc(O)cc3)c2)[C@H](O)[C@@H](O)[C@@H]1O
Result: 104

Problem: Quick one: give measured cell viability for COC1=CC=C(C=C1O)C/2=C/C(=O)C3=C(O2)C=C(O[C@@H]4O[C@H](CO[C@@H]5O[C@@H](C)[C@H](O)[C@@H](O)[C@H]5O)[C@@H](O)[C@H](O)[C@H]4O)C=C3O
Result: 103

Problem: Could you please provide reported cell viability for OCc1ccc(-c2ccc(-c3ccc(CO)s3)o2)s1 ? Thanks!
Result: 124

====

- Test system: SEM cells
- procedure-text: cell viability relative to DMSO control; higher = less cytotoxic
- measurement-context: HPLM + 10% dialyzed FBS; 48 h; 0.00702 µM
measured-attribute: cell viability (%)
Just the number in %, nothing appended.

Example compounds with recorded cell viability:
Cc1onc(-c2ccccc2)c1C(=O)N[C@@H]1C(=O)N2[C@@H]1SC(C)(C)[C@@H]2C(=O)[O-].[Na+] = 87.2
CON(C)C(=O)N1/N=C(S[C@@]1(CCCN)C2=CC=CC=C2)/C3=CC(=CC=C3F)F = 42.5
CC/1=C(/N2[C@H](SC1)[C@H](NC(=O)C(N)C3=CC=CC=C3)C2=O)C(O)=O (stereo not given in full) = 119

Problem: Recall the reported cell viability of OCCC#Cc1nc(-c2ccc(F)cc2)c(-c2ccncc2)n1CCCc1ccccc1 on SEM cells and write it down.
Result: 115

====

- Test system: P12-Ichikawa
- procedure-text: AUC of viability dose-response curve (% viability x log10 dose units); higher = less sensitive
- measurement-context: RPMI 5 mM glucose + 10% FBS; 48 h
Quick reference: AUC of viability dose-response curve of the listed items.
Respond numerically, and do not add a unit to the figure.

Illustrative cases are given below, each with its answer.
CCOc1ccc(Cc2cc([C@@H]3O[C@H](CO)[C@@H](O)[C@H](O)[C@H]3O)ccc2Cl)cc1 = 466
Cn1cc(-c2ccc(F)c(C(F)(F)F)c2)nc1C1CCN(c2ncnc3[nH]ncc23)CC1 = 444
NC(=O)c1ccc2[nH]c(-c3ccc(Oc4ccc(Cl)cc4)cc3)nc2c1 = 454

Problem: Please indicate AUC of viability dose-response curve recorded for OC[C@H]1O[C@@H]2[C@@H](OC\3=N\C(=N)\C=C/[N@@]23)[C@@H]1O
Result: 241

Problem: Output AUC of viability dose-response curve of CCN1CCCC1CNC(=O)c1cc([S+](N)(=O)[O-])ccc1OC (stereo not given)
Result: 467
